All figures here come from patent CN105348390A.

Target: T1, 重组huPCSK9-his (人PCSK9, C端His-tag) (human, UniProt Q8NBP7 54-692)
T1 construct: Expressed in HEK293 cells; not shown: C-terminal His-tag
T1 sequence (Q8NBP7 other isoform, or with tags, fused parts or gaps): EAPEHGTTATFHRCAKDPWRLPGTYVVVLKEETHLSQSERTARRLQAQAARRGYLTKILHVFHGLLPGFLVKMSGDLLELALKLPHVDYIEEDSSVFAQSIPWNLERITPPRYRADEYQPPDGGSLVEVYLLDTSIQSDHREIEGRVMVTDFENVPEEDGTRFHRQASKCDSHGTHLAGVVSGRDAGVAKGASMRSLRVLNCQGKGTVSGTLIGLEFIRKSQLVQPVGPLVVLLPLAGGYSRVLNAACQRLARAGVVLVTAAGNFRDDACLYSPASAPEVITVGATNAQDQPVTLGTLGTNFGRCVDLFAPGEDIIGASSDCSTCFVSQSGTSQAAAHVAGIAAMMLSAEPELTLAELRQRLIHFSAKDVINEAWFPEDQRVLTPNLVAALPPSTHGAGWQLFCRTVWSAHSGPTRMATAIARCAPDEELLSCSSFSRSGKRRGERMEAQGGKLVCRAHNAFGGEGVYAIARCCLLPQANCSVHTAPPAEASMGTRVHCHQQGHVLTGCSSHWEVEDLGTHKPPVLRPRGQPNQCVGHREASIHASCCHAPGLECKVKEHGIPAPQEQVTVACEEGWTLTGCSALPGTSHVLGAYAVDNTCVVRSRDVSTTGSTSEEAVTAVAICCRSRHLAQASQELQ
Test: SPR, Biacore 3000, antibody captured by anti-human Fc on CM5, huPCSK9 as analyte
Readings of Kd for the listed binders
Write it as a number; the unit nM goes unstated.

Worked cases, answers included:
{"Binder": "H4H4-IgG4 (antibody, V domains shown) VH: QVQLVQSGAEVKKPGASVKVSCKASGYAIYNYGISWVRQAPGQGLEWMGWVSFYNGNTNYAQKLQGRGTMTTDPSTSTAYMELRSLRSDDTAVYYCARGYVMDIWGQGTTVTVSS VL: DIQMTQSPSSLSASVGDRVTITCRASQSINNWLDWYQQKPGKAPKLLIYAASTRPSGVPSRFSGSGSGTDFTLTISSLQPEDFATYYCQQDQDIPPTFGQGTKVEIKR", "Measured quantity": "Kd", "Result units": "nM", "Reported": 0.0659}
{"Binder": "H8A7-IgG4 (antibody, V domains shown) VH: QVQLVQSGAEVKKPGASVKVSCKASGYAIYNYGISWVRQAPGQGLEWMGWVSFYNGNTNYAQKLQGRGTMTTDPSTSTAYMELRSLRSDDTAVYYCARGYVMDFWGQGTTVTVSS VL: DIQMTQSPSSLSASVGDRVTITCRASQSINNWLDWYQQKPGKAPKLLIYAASTRPSGVPSRFSGSGSGTDFTLTISSLQPEDFATYYCQQDQDIPPTFGQGTKVEIKR", "Measured quantity": "Kd", "Result units": "nM", "Reported": 0.0648}

Now turn to the next binder.
Entry under test: H7B12-IgG4 (antibody, V domains shown) VH: QVQLVQSGAEVKKPGASVKVSCKASGYTLNNYGISWVRQAPGQGLEWMGWVSFYNGNTNYAQKLQGRGTMTTDPSTSTAYMELRSLRSDDTAVYYCARGYVMDIWGQGTTVTVSS VL: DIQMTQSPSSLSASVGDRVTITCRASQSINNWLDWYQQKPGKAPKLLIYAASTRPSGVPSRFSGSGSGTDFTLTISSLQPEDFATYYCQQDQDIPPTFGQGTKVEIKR . Its Kd was 0.0323
